molecular target: recombinant human mPGES-1 (Homo sapiens, UniProt O14684); construct: made in house; host or cells: Rosetta E. coli (microsomal/membrane fraction); experiment: mPGES-1 inhibition, HTRF detection of PGE2; format: biochemical
Sequence (O14684 whole entry): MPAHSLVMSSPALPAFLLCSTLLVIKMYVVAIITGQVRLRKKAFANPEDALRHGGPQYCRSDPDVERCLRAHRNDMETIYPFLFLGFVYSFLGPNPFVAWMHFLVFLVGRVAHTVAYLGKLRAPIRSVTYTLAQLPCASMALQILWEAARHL
Counter-ions that a name gives are not always drawn.
recorded_metric: inhibition at 10 µM (%)

molecule="COc1nc2c(cc1C(=O)NCc1ccccc1C(F)(F)F)nc(Nc1c(Cl)cccc1Cl)n2C [Example 861]" recorded_metric="inhibition at 10 µM" observed_result=100
molecule="CCOc1nc2[nH]c(Nc3c(Cl)cncc3Cl)nc2cc1C(=O)NCC(F)(F)C(F)(F)C(F)(F)C(F)(F)F [Example 844]" recorded_metric="inhibition at 10 µM" observed_result=100
molecule="CCOc1nc2[nH]c(Nc3c(Cl)cncc3Cl)nc2cc1C(=O)Nc1cc(C(F)(F)F)ccn1 [Example 845]" recorded_metric="inhibition at 10 µM" observed_result=99
molecule="CCCC[C@@H](C)NC(=O)c1cnc2c(c1)nc(Nc1c(Cl)cccc1Cl)n2C [Example 508]" recorded_metric="inhibition at 10 µM" observed_result=94
molecule="CC(=O)N(C)CCOc1nc2[nH]c(Nc3c(Cl)cncc3Cl)nc2cc1C(=O)NCC(F)(F)C(F)(F)C(F)(F)C(F)(F)F [Example 809]" recorded_metric="inhibition at 10 µM" observed_result=100
molecule="Cn1c(Nc2c(Cl)cc(F)cc2Cl)nc2cc(C(=O)Nc3ccc(Br)cc3)c(OCC(F)F)nc21 [Example 818]" recorded_metric="inhibition at 10 µM" observed_result=99
molecule="CCOc1nc2[nH]c(Nc3c(Cl)cncc3Cl)nc2cc1C(=O)N[C@H]1CC[C@H](C(F)(F)F)CC1 [Example 842]" recorded_metric="inhibition at 10 µM" observed_result=92
molecule="O=C(NCc1ccccc1C(F)(F)F)c1cc2nc(Nc3c(Cl)cncc3Cl)[nH]c2nc1OC1CCOC1 (centres unmarked) [Example 790]" recorded_metric="inhibition at 10 µM" observed_result=97
molecule="Cn1c(Nc2c(Cl)cncc2Cl)nc2cc(C(=O)Nc3ccc(Br)cc3)c(OCC(F)F)nc21 [Example 837]" recorded_metric="inhibition at 10 µM" observed_result=96
molecule="Cn1c(Nc2c(Cl)cncc2Cl)nc2cc(C(=O)NCC(F)(F)C(F)(F)C(F)(F)C(F)(F)F)c(OCC(F)(F)F)nc21 [Example 850]" recorded_metric="inhibition at 10 µM" observed_result=99
molecule="Cn1c(Nc2cnccc2C(F)(F)F)nc2cc(C(=O)N[C@H]3CC[C@H](C(F)(F)F)CC3)c(OCC(F)F)nc21 [Example 789]" recorded_metric="inhibition at 10 µM" observed_result=95
molecule="Cn1c(Nc2c(Cl)cncc2Cl)nc2cc(C(=O)NCc3ncccc3C(F)(F)F)c(OCCF)nc21 [Example 835]" recorded_metric="inhibition at 10 µM" observed_result=95
molecule="Cn1c(Nc2c(Cl)cncc2Cl)nc2cc(C(=O)Nc3ccc(Br)cc3)c(OCCF)nc21 [Example 832]" recorded_metric="inhibition at 10 µM" observed_result=100
molecule="Cn1c(Nc2c(Cl)cncc2Cl)nc2cc(C(=O)Nc3cc(C(F)(F)F)ccn3)c(OCC(F)F)nc21 [Example 836]" recorded_metric="inhibition at 10 µM" observed_result=100
molecule="O=C(N[C@H]1CC[C@H](C(F)(F)F)CC1)c1cc2nc(Nc3cnccc3C(F)(F)F)[nH]c2nc1OCC(F)F [Example 799]" recorded_metric="inhibition at 10 µM" observed_result=99
molecule="Cn1c(Nc2c(Cl)cncc2Cl)nc2cc(C(=O)NCC(F)(F)C(F)(F)C(F)(F)C(F)(F)F)c(OCC(F)F)nc21 [Example 840]" recorded_metric="inhibition at 10 µM" observed_result=99
molecule="O=C(N[C@H]1CC[C@H](C(F)(F)F)CC1)c1cc2nc(Nc3cccnc3C(F)(F)F)[nH]c2nc1OCC(F)F [Example 798]" recorded_metric="inhibition at 10 µM" observed_result=87
molecule="Cn1c(Nc2c(Cl)cncc2Cl)nc2cc(C(=O)NCc3ccccc3C(F)(F)F)c(OCC(F)F)nc21 [Example 839]" recorded_metric="inhibition at 10 µM" observed_result=98
molecule="CC#CCn1c(Nc2c(Cl)cccc2Cl)nc2cc(C(=O)NC3CCCCC3)cnc21 [Example 523]" recorded_metric="inhibition at 10 µM" observed_result=96
molecule="O=C(NCC(F)(F)C(F)(F)C(F)(F)C(F)(F)F)c1cc2nc(Nc3c(Cl)cncc3Cl)[nH]c2nc1OCC(F)F [Example 807]" recorded_metric="inhibition at 10 µM" observed_result=90
molecule="COc1nc2c(cc1C(=O)Nc1cc(C(F)(F)F)ccn1)nc(Nc1c(Cl)cccc1Cl)n2C [Example 386, formate]" recorded_metric="inhibition at 10 µM" observed_result=99
molecule="Cc1ccnc(Cl)c1Nc1nc2cc(C(=O)N[C@H]3CC[C@H](C(F)(F)F)CC3)c(OCC(F)F)nc2n1C [Example 788]" recorded_metric="inhibition at 10 µM" observed_result=98
molecule="COCCOc1nc2c(cc1C(=O)N[C@H]1CC[C@H](C(F)(F)F)CC1)nc(Nc1c(Cl)cc(F)cc1Cl)n2C [Example 869]" recorded_metric="inhibition at 10 µM" observed_result=100
molecule="Cn1c(Nc2c(Cl)cc(F)cc2Cl)nc2cc(C(=O)Nc3cc(C(F)(F)F)ccn3)c(OCC(F)F)nc21 [Example 817]" recorded_metric="inhibition at 10 µM" observed_result=96
molecule="CCCCCCCCNC(=O)c1cnc2c(c1)nc(Nc1c(Cl)cccc1Cl)n2C [Example 403]" recorded_metric="inhibition at 10 µM" observed_result=100
molecule="Cn1c(Nc2c(F)cccc2Cl)nc2cc(C(=O)Nc3ccc(Br)cc3)cnc21 [Example 480]" recorded_metric="inhibition at 10 µM" observed_result=100
molecule="CC(C)[C@H]1CC[C@H](NC(=O)c2cnc3[nH]c(Nc4c(Cl)cccc4Cl)nc3c2)CC1 [Example 394]" recorded_metric="inhibition at 10 µM" observed_result=100
molecule="Cn1c(Nc2c(Cl)cc(F)cc2Cl)nc2cc(C(=O)N[C@H]3CC[C@H](C(F)(F)F)CC3)c(OCC(F)(F)F)nc21 [Example 814]" recorded_metric="inhibition at 10 µM" observed_result=97
molecule="O=C(NC1CCC2(CC1)CC2)c1cnc2[nH]c(Nc3c(Cl)cccc3Cl)nc2c1 [Example 485]" recorded_metric="inhibition at 10 µM" observed_result=98

* * *

Target: recombinant human mPGES-1 (Homo sapiens, UniProt O14684)
Construct: made in house; host or cells: Rosetta E. coli (microsomal/membrane fraction)
Assay: mPGES-1 inhibition, HTRF detection of PGE2
Type: biochemical
Protocol: Microsomes from Rosetta E. coli bacteria expressing recombinant human mPGES-1 is dissolved in 0.1 M KPi pH 7.4 buffer containing 2.5 mM GSH. 50 μl of the enzyme is subsequently dispensed in a 384-well plate. […] After over night incubation the fluorescence is measured by the use of an appropriate microplate reader. […] The extent of the specific FRET is measured as a ratio of the emission intensity at 665 nm vs. that at 620 nm. […]
Where a name gives a salt, the structure may show the parent alone.
recorded_metric: inhibition at 10 µM (%)

compound=COCCOc1nc2[nH]c(Nc3c(Cl)cc(F)cc3Cl)nc2cc1C(=O)N[C@H]1CC[C@H](C(F)(F)F)CC1 recorded_metric="inhibition at 10 µM" unit_of_measure=% observed_result=100
compound=Cn1c(Nc2c(Cl)cncc2Cl)nc2cc(C(=O)NCc3ncccc3C(F)(F)F)c(OCC(F)F)nc21 recorded_metric="inhibition at 10 µM" unit_of_measure=% observed_result=99
compound=Cn1c(Nc2c(Cl)cccc2Cl)nc2cc(C(=O)N[C@H]3CC[C@H](C(F)F)CC3)cnc21 recorded_metric="inhibition at 10 µM" unit_of_measure=% observed_result=93
compound="CC(C)n1c(Nc2ccccc2Cl)nc2cc(C(=O)NC3CCC(C)(C)CC3)cnc21 [Example 541, hydrochloride]" recorded_metric="inhibition at 10 µM" unit_of_measure=% observed_result=74
compound=Cn1c(Nc2c(F)cccc2Cl)nc2cc(C(=O)N[C@H]3CC[C@H](C(F)(F)F)CC3)c(OCC(F)F)nc21 recorded_metric="inhibition at 10 µM" unit_of_measure=% observed_result=100
compound=COCCOc1nc2c(cc1C(=O)N[C@H]1CC[C@H](C(F)(F)F)CC1)nc(Nc1c(Cl)cncc1Cl)n2C recorded_metric="inhibition at 10 µM" unit_of_measure=% observed_result=100
compound=Cn1c(Nc2c(Cl)cccc2Cl)nc2cc(C(=O)N[C@H]3CC[C@H](C(F)(F)F)CC3)cnc21 recorded_metric="inhibition at 10 µM" unit_of_measure=% observed_result=99
compound=COCCOc1nc2[nH]c(Nc3c(Cl)cncc3Cl)nc2cc1C(=O)N[C@H]1CC[C@H](C(F)(F)F)CC1 recorded_metric="inhibition at 10 µM" unit_of_measure=% observed_result=100
compound="Cn1c(Nc2c(Cl)cncc2Cl)nc2cc(C(=O)N[C@H]3CC[C@H](C(F)(F)F)CC3)c(OC3CCOC3)nc21 (stereo partly drawn)" recorded_metric="inhibition at 10 µM" unit_of_measure=% observed_result=100
compound=Cn1c(Nc2c(Cl)cc(F)cc2Cl)nc2cc(C(=O)NCc3ncccc3C(F)(F)F)c(OCC(F)(F)F)nc21 recorded_metric="inhibition at 10 µM" unit_of_measure=% observed_result=99
compound=O=C(Nc1ccc(Br)cc1)c1cc2nc(Nc3c(Cl)cncc3Cl)[nH]c2nc1OCC(F)(F)F recorded_metric="inhibition at 10 µM" unit_of_measure=% observed_result=100
compound=O=C(NCc1ccccc1C(F)(F)F)c1cc2nc(Nc3c(Cl)cc(F)cc3Cl)[nH]c2nc1OCC(F)F recorded_metric="inhibition at 10 µM" unit_of_measure=% observed_result=100
compound=CCCC[C@H](C)NC(=O)c1cnc2c(c1)nc(Nc1c(Cl)cccc1Cl)n2C recorded_metric="inhibition at 10 µM" unit_of_measure=% observed_result=96
compound=Cn1c(Nc2c(Cl)cc(F)cc2Cl)nc2cc(C(=O)N[C@H]3CC[C@H](C(F)(F)F)CC3)c(OCCF)nc21 recorded_metric="inhibition at 10 µM" unit_of_measure=% observed_result=100
compound=O=C(NCc1ncccc1C(F)(F)F)c1cc2nc(Nc3c(Cl)cncc3Cl)[nH]c2nc1OCC(F)(F)F recorded_metric="inhibition at 10 µM" unit_of_measure=% observed_result=100

Origin of values: patent US8703796B2
